# target.or.system: 93 xpt RNA
# experiment.description: In-line probing of 93 xpt RNA
# Type: binding, B. subtilis
# condition.label: wild-type xpt RNA, Example 8 (FIG. 39a); read-out: apparent KD
pKd: −log10 of the molar value.
readout.kind: pKd

- smiles.text: "Nc1nc2nc[nH]c2c(=O)[nH]1"
  readout.kind: "pKd"
  assay.result: "≥ 8.30"

* * *

# target.or.system: 80 ydhL RNA
# experiment.description: In-line probing of 80 ydhL RNA
# condition.label: half-maximal change at sites 1 through 4; read-out: apparent KD

- smiles.text: "Nc1ncnc2nc[nH]c12"
  Kd: "~0.3 µM"

* * *

# target.or.system: 251 yitJ RNA

- molecule: "C[S+](CC[C@H](N)C(=O)O)C[C@H]1O[C@@H](n2cnc3c(N)ncnc32)[C@H](O)[C@@H]1O (stereo partly shown)"
  Kd: "~200 nM"

* * *

# target.or.system: 165 thiM RNA
# Type: binding, E. coli
# condition.label: Example 2, FIG. 7A; read-out: apparent KD

- compound: "Cc1ncc(C[n+]2csc(CCO[P@](=O)(O)OP(=O)(O)O)c2C)c(N)n1 [TPP, thiamine pyrophosphate]"
  unit.annotation: "nM"
  Kd: 600
